- targetEntity: PAK1 (human) (UniProt Q13153)
- Sequence (Q13153 whole entry, looked up): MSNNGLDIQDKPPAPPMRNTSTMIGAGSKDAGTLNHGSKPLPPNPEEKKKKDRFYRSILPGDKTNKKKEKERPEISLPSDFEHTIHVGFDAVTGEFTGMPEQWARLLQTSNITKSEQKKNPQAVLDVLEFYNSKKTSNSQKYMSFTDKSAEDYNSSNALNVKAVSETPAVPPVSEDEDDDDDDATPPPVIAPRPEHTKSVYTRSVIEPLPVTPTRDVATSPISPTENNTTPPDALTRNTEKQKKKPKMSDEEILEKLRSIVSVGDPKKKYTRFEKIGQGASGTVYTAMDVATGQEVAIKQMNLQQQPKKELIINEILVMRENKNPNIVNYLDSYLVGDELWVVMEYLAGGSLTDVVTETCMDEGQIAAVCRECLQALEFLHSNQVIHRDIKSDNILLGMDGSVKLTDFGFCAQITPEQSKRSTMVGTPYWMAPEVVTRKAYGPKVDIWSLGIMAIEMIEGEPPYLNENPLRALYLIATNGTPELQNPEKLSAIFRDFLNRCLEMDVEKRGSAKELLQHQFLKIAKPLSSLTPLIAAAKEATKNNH
- experimentalProtocol: KINOMEscan competition binding
- conditionDescription: compound 10.0 µM
measurementType: kinase still bound, per cent of control (%)
Supply the numeric figure in %, leaving out any unit text.

Incoming: I would be grateful if you could share the reported kinase still bound, per cent of control for "O=C(NC1CC1)c1cccc(-c2ccc3c(NC(=O)C4CC4)n[nH]c3c2)c1" .
Outgoing: 70

Incoming: I would be grateful if you could share the reported kinase still bound, per cent of control for "COc1cc(C(=O)NC2CCN(C)CC2)ccc1Nc1ncc2c(n1)N(C1CCCC1)CCC(=O)N2C(C)C" .
Outgoing: 100

Incoming: I would be grateful if you could share the reported kinase still bound, per cent of control for "OCCCNc1cc(-c2ccnc(Nc3cccc(Cl)c3)n2)ccn1" .
Outgoing: 100

Incoming: I would be grateful if you could share the reported kinase still bound, per cent of control for "Cn1c(=O)n(-c2ccc(C(C)(C)C#N)cc2)c2c3cc(-c4cnc5ccccc5c4)ccc3ncc21" .
Outgoing: 100

Incoming: I would be grateful if you could share the reported kinase still bound, per cent of control for "CN(C)C/C=C/C(=O)Nc1cccc(Nc2ncc3c(n2)N(C)c2ccccc2C(=O)N3C)c1" .
Outgoing: 91

Incoming: I would be grateful if you could share the reported kinase still bound, per cent of control for "COc1cc(N2CCN(C)CC2)ccc1Nc1nc(N)c(C(=O)c2c(Cl)cccc2Cl)s1" .
Outgoing: 91

Incoming: I would be grateful if you could share the reported kinase still bound, per cent of control for "CCC(=O)N1CCN(c2ccc(-n3c(=O)ccc4cnc5ccc(-c6cnc7ccccc7c6)cc5c43)cc2C(F)(F)F)CC1" .
Outgoing: 73

Incoming: I would be grateful if you could share the reported kinase still bound, per cent of control for "CCCS(=O)(=O)Nc1ccc(F)c(C(=O)c2c[nH]c3ncc(-c4ccc(Cl)cc4)cc23)c1F" .
Outgoing: 95

Incoming: I would be grateful if you could share the reported kinase still bound, per cent of control for "C=CC(=O)Nc1cc(NC(=O)c2ccc(C)c(NC(=O)c3ccno3)c2)cc(C(F)(F)F)c1" .
Outgoing: 79

Incoming: I would be grateful if you could share the reported kinase still bound, per cent of control for "CCN1CCN(Cc2ccc(Nc3ncc4c(n3)N(C)c3ccccc3C(=O)N4C)cc2C(F)(F)F)CC1" .
Outgoing: 86

Incoming: I would be grateful if you could share the reported kinase still bound, per cent of control for "CCOc1cc2ncc(C#N)c(Nc3ccc(OCc4ccccn4)c(Cl)c3)c2cc1NC(=O)/C=C/CN(C)C" .
Outgoing: 16

Incoming: I would be grateful if you could share the reported kinase still bound, per cent of control for "Cc1ccc(C(=O)Nc2cccc(C(F)(F)F)c2)cc1Nc1cncc(C(N)=O)c1" .
Outgoing: 100

Incoming: I would be grateful if you could share the reported kinase still bound, per cent of control for "Nc1ccc(-c2ccc3ncc4ccc(=O)n(-c5cccc(C(F)(F)F)c5)c4c3c2)cn1" .
Outgoing: 95

Incoming: I would be grateful if you could share the reported kinase still bound, per cent of control for "C=CC(=O)Nc1cccc(Nc2nc(N[C@H]3CC[C@H](N(C)C)CC3)nc3c2ncn3C(C)C)c1" .
Outgoing: 78

Incoming: I would be grateful if you could share the reported kinase still bound, per cent of control for "O=C1Nc2ccc(I)cc2/C1=C/c1cc(Br)c(O)c(Br)c1" .
Outgoing: 100

Incoming: I would be grateful if you could share the reported kinase still bound, per cent of control for "CC[C@@H]1C(=O)N(C)c2cnc(Nc3ccc(C(=O)NC4CCN(C)CC4)cc3OC)nc2N1C1CCCC1" .
Outgoing: 100

Incoming: I would be grateful if you could share the reported kinase still bound, per cent of control for "O=C(NOC[C@H](O)CO)c1ccc(F)c(F)c1Nc1ccc(I)cc1F" .
Outgoing: 100

Incoming: I would be grateful if you could share the reported kinase still bound, per cent of control for "C=CC(=O)Nc1cccc(Oc2nc(Nc3ccc(N4CCN(C)CC4)cc3OC)ncc2Cl)c1" .
Outgoing: 100

Incoming: I would be grateful if you could share the reported kinase still bound, per cent of control for "Cc1cc([C@@H](C)Nc2ccccc2C(=O)O)c2nc(N3CCOCC3)cc(=O)n2c1" .
Outgoing: 100

Incoming: I would be grateful if you could share the reported kinase still bound, per cent of control for "Cc1ccc2nc(NCCN)c3ncc(C)n3c2c1" .
Outgoing: 100

Incoming: I would be grateful if you could share the reported kinase still bound, per cent of control for "N#Cc1c(NC(=O)c2cccc3ccccc23)sc2c1CCCC2" .
Outgoing: 100

Incoming: I would be grateful if you could share the reported kinase still bound, per cent of control for COc1cc(C(=O)NC2CCN(C)CC2)ccc1Nc1ncc2c(n1)N(C1CCCC1)C(C)CC(=O)N2C (stereo not given) .
Outgoing: 100

Incoming: I would be grateful if you could share the reported kinase still bound, per cent of control for "C[C@@H](Oc1cc(-n2cnc3ccc(CN4CCN(C)CC4)cc32)sc1C(N)=O)c1ccccc1C(F)(F)F" .
Outgoing: 100

Incoming: I would be grateful if you could share the reported kinase still bound, per cent of control for "O=C(O)c1ccc(Nc2ncc3c(n2)-c2ccc(Cl)cc2C(c2c(F)cccc2F)=NC3)cc1" .
Outgoing: 80

Incoming: I would be grateful if you could share the reported kinase still bound, per cent of control for "Cc1ccc(NC(=O)c2cccc(C(C)(C)C#N)c2)cc1Nc1ccc2ncn(C)c(=O)c2c1" .
Outgoing: 100

====

- targetEntity: DYRK2 (human)
- experimentalProtocol: KINOMEscan competition binding
- conditionDescription: compound 10.0 µM
Answer each item with its documented kinase still bound, per cent of control.
Supply the numeric figure in %, leaving out any unit text.

Incoming: I would be grateful if you could share the reported kinase still bound, per cent of control for "Nc1ccc(-c2ccc3ncc4ccc(=O)n(-c5cccc(C(F)(F)F)c5)c4c3c2)cn1" .
Outgoing: 88

Incoming: I would be grateful if you could share the reported kinase still bound, per cent of control for "C=CC(=O)Nc1cccc(Nc2nc(N[C@H]3CC[C@H](N(C)C)CC3)nc3c2ncn3C(C)C)c1" .
Outgoing: 58

Incoming: I would be grateful if you could share the reported kinase still bound, per cent of control for "Cn1c(=O)n(-c2ccc(C(C)(C)C#N)cc2)c2c3cc(-c4cnc5ccccc5c4)ccc3ncc21" .
Outgoing: 100

Incoming: I would be grateful if you could share the reported kinase still bound, per cent of control for "COc1cc(N2CCN(C)CC2)ccc1Nc1nc(N)c(C(=O)c2c(Cl)cccc2Cl)s1" .
Outgoing: 89

Incoming: I would be grateful if you could share the reported kinase still bound, per cent of control for "O=C(NC1CC1)c1cccc(-c2ccc3c(NC(=O)C4CC4)n[nH]c3c2)c1" .
Outgoing: 36

====

Answer each item with its documented kinase still bound, per cent of control.
- Test system: EGFR (human), P00533 [L861Q]
- experimentalProtocol: KINOMEscan competition binding
- conditionDescription: compound 10.0 µM
Supply the numeric figure in %, leaving out any unit text.

Incoming: I would be grateful if you could share the reported kinase still bound, per cent of control for "COc1cc(C(=O)N2CCC(N3CCN(C)CC3)CC2)ccc1Nc1ncc2c(n1)N(C)c1ccccc1C(=O)N2C" .
Outgoing: 100

Incoming: I would be grateful if you could share the reported kinase still bound, per cent of control for "C=CC(=O)Nc1cccc(Nc2nc(N[C@H]3CC[C@H](N(C)C)CC3)nc3c2ncn3C(C)C)c1" .
Outgoing: 100

Incoming: I would be grateful if you could share the reported kinase still bound, per cent of control for "CS(=O)(=O)N1CCN(Cc2cc3nc(-c4cccc5[nH]ncc45)nc(N4CCOCC4)c3s2)CC1" .
Outgoing: 100

Incoming: I would be grateful if you could share the reported kinase still bound, per cent of control for "Cc1ccc(C(=O)Nc2cccc(C(F)(F)F)c2)cc1Nc1cncc(C(N)=O)c1" .
Outgoing: 100

Incoming: I would be grateful if you could share the reported kinase still bound, per cent of control for "C=CC(=O)Nc1ccc(CN(C(=O)Nc2c(Cl)c(OC)cc(OC)c2Cl)c2cc(Nc3ccc(N4CCN(C)CC4)cc3)ncn2)cc1" .
Outgoing: 0.1

Incoming: I would be grateful if you could share the reported kinase still bound, per cent of control for "O=c1cc(N2CCOCC2)oc2c(-c3cccc4c3sc3ccccc34)cccc12" .
Outgoing: 100

Incoming: I would be grateful if you could share the reported kinase still bound, per cent of control for "O=C1Nc2ccc(I)cc2/C1=C/c1cc(Br)c(O)c(Br)c1" .
Outgoing: 55

Incoming: I would be grateful if you could share the reported kinase still bound, per cent of control for "C=CC(=O)Nc1cccc(Oc2nc(Nc3ccc(N4CCN(C)CC4)cc3OC)ncc2Cl)c1" .
Outgoing: 0.05

Incoming: I would be grateful if you could share the reported kinase still bound, per cent of control for "NC(=O)Nc1cc(-c2cccc(F)c2)sc1C(=O)N[C@@H]1CCCNC1" .
Outgoing: 1.5

====

- targetEntity: MAPK11 (human) (UniProt Q15759)
- Sequence (Q15759 whole entry, looked up): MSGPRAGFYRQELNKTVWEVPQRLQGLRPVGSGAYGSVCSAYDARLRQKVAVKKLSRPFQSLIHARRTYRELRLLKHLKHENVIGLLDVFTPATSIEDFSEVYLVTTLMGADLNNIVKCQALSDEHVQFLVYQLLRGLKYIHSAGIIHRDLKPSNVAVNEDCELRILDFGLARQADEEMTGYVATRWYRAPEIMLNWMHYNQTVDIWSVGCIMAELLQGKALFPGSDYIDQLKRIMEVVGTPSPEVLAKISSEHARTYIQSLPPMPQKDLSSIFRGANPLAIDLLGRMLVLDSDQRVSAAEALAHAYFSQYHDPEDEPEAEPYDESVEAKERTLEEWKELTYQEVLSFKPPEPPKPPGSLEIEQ
- experimentalProtocol: KINOMEscan competition binding
- conditionDescription: compound 10.0 µM
measurementType: kinase still bound, per cent of control (%)
Supply the numeric figure in %, leaving out any unit text.

Incoming: I would be grateful if you could share the reported kinase still bound, per cent of control for "C=CC(=O)Nc1cccc(Nc2nc(N[C@H]3CC[C@H](N(C)C)CC3)nc3c2ncn3C(C)C)c1" .
Outgoing: 89

Incoming: I would be grateful if you could share the reported kinase still bound, per cent of control for "C=CC(=O)Nc1cccc(Oc2nc(Nc3ccc(N4CCN(C)CC4)cc3OC)ncc2Cl)c1" .
Outgoing: 100

Incoming: I would be grateful if you could share the reported kinase still bound, per cent of control for "Cc1ccc(C(=O)Nc2cccc(C(F)(F)F)c2)cc1Nc1cncc(C(N)=O)c1" .
Outgoing: 100

Incoming: I would be grateful if you could share the reported kinase still bound, per cent of control for "Cc1ccc2nc(NCCN)c3ncc(C)n3c2c1" .
Outgoing: 87

Incoming: I would be grateful if you could share the reported kinase still bound, per cent of control for "CCC(=O)N1CCN(c2ccc(-n3c(=O)ccc4cnc5ccc(-c6cnc7ccccc7c6)cc5c43)cc2C(F)(F)F)CC1" .
Outgoing: 53

Incoming: I would be grateful if you could share the reported kinase still bound, per cent of control for "O=C1Nc2ccc(I)cc2/C1=C/c1cc(Br)c(O)c(Br)c1" .
Outgoing: 88

Incoming: I would be grateful if you could share the reported kinase still bound, per cent of control for "C[C@@H](Oc1cc(-n2cnc3ccc(CN4CCN(C)CC4)cc32)sc1C(N)=O)c1ccccc1C(F)(F)F" .
Outgoing: 100

Incoming: I would be grateful if you could share the reported kinase still bound, per cent of control for "CN(C)C/C=C/C(=O)Nc1cccc(Nc2ncc3c(n2)N(C)c2ccccc2C(=O)N3C)c1" .
Outgoing: 89

Incoming: I would be grateful if you could share the reported kinase still bound, per cent of control for "OCCCNc1cc(-c2ccnc(Nc3cccc(Cl)c3)n2)ccn1" .
Outgoing: 100

Entry source: the kinase profiling compilation of Christmann-Franck et al. (2016)
